biological target: RAC-alpha serine/threonine-protein kinase (Homo sapiens, UniProt P31749); test: Inhibition of human AKT1 in human U87MG cells assessed as PRAS40 phosphorylation after 1 hr by ELISA; type: cell-based, U-87MG ATCC
Sequence (P31749 whole entry): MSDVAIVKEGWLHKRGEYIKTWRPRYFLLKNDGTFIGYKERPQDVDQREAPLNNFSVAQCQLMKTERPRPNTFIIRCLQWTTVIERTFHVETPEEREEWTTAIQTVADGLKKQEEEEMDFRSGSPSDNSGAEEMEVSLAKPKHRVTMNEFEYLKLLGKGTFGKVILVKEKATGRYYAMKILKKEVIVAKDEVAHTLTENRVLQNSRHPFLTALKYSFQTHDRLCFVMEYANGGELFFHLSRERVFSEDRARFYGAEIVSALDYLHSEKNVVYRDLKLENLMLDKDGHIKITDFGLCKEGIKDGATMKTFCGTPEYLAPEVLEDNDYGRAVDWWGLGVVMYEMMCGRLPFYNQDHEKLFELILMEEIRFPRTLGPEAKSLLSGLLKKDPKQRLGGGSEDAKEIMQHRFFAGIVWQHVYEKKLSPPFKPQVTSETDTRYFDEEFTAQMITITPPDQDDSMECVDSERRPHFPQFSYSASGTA
So I've got a bunch of compounds here, and I need their IC50 values.
State just the number; it will be interpreted in nM.

**Q:** For the compound "N[C@H](CNc1ncc(-c2ccc3[nH]c(=O)oc3c2)s1)Cc1ccc(C(F)(F)F)cc1" , give its reported IC50.
**A:** 500

**Q:** For the compound "Cn1c(=O)[nH]c2ccc(-c3cnc(NC[C@@H](N)Cc4ccc(C(F)(F)F)cc4)s3)cc21" , give its reported IC50.
**A:** 630

**Q:** For the compound "N[C@H](CNc1ncc(-c2ccc3c(c2)CNC3=O)s1)Cc1ccc(C(F)(F)F)cc1" , give its reported IC50.
**A:** 6000

**Q:** For the compound "N[C@H](CNc1ncc(-c2ccc3cnccc3c2)s1)Cc1ccc(C(F)(F)F)cc1" , give its reported IC50.
**A:** 430

**Q:** For the compound "Nc1cc2cc(-c3cnc(NC[C@@H](N)Cc4ccc(C(F)(F)F)cc4)s3)ccc2cn1" , give its reported IC50.
**A:** 890

**Q:** For the compound "N[C@H](CNc1ncc(-c2ccc3c(c2)CC(=O)N3)s1)Cc1ccc(C(F)(F)F)cc1" , give its reported IC50.
**A:** 300

**Q:** For the compound "N[C@H](CNc1ncc(-c2ccc3cncnc3c2)s1)Cc1ccc(C(F)(F)F)cc1" , give its reported IC50.
**A:** 1300

**Q:** For the compound "N[C@H](CNc1ncc(-c2ccc3[nH]ncc3c2)s1)Cc1ccc(Cl)cc1" , give its reported IC50.
**A:** 730

**Q:** For the compound "N[C@H](CCc1cc(-c2ccc3cnccc3c2)no1)Cc1ccc(C(F)(F)F)cc1" , give its reported IC50.
**A:** 3800

**Q:** For the compound "N[C@H](CNc1ncc(-c2ccc3[nH]c(=O)sc3c2)s1)Cc1ccc(C(F)(F)F)cc1" , give its reported IC50.
**A:** 920

Entry source: ChEMBL document CHEMBL1154944
